subject of test: human sEH (Homo sapiens, UniProt P34913)
Sequence (P34913 whole entry): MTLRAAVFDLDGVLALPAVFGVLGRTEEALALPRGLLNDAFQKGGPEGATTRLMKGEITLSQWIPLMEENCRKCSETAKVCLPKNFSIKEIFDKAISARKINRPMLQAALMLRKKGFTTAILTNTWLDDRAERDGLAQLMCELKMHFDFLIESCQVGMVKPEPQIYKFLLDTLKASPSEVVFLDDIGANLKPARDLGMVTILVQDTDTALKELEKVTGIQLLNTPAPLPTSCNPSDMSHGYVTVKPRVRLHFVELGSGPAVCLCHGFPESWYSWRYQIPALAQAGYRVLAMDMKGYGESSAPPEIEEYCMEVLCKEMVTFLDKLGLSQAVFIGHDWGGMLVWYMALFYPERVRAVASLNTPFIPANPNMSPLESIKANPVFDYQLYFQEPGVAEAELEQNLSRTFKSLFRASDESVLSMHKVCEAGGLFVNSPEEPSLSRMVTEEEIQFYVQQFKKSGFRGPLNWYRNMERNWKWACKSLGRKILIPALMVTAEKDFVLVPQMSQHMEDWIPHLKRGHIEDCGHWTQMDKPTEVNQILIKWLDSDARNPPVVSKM
assay explanation: Inhibition of human sEH in vitro (potency unit definition, assay of Jones et al.)
Type: biochemical
condition label: 1 nM human sEH, read-out: 1 Potency unit: concentration permitting the inhibition of 50% of 1 nM of the human sEH
quantity name: IC50 (nM)

{"compound": "C[C@H](C(=O)N1CCC(NC(=O)Nc2ccc(OC(F)(F)F)c(F)c2)CC1)[C@@H](C)O", "value reported": 0.0961}
{"compound": "C[C@H](O)[C@H](C)C(=O)N1CCC(NC(=O)Nc2ccc(OC(F)(F)F)c(F)c2)CC1", "value reported": 0.0961}

---

Tested on: Nb-EC03
assay explanation: Nb-based indirect competitive ELISA for EC5026 (EC5026 immunoassay)
condition label: Nb-EC03, cAg 2-BSA

{"compound": "CC[C@H](C)C(=O)N1CCC(NC(=O)Nc2ccc(OC(F)(F)F)c(F)c2)CC1 [EC5026]", "subject of test": "Nb-EC03", "limit sign": "=", "EC5026 immunoassay IC50 / ng/mL": 1.44}
{"compound": "Nc1ccc(OC(F)(F)F)cc1 [Compound 15, 4-(trifluoromethoxy)aniline]", "subject of test": "Nb-EC03", "limit sign": ">", "EC5026 immunoassay IC50 / ng/mL": 150000}
{"compound": "O=C(Nc1ccc(OC(F)(F)F)c(F)c1)NC1CCNCC1 [Compound 11]", "subject of test": "Nb-EC03", "limit sign": "=", "EC5026 immunoassay IC50 / ng/mL": 4.23}
{"compound": "CCC(=O)N1CCC(NC(=O)Nc2ccc(OC(F)(F)F)cc2)CC1 [TPPU]", "subject of test": "Nb-EC03", "limit sign": "=", "EC5026 immunoassay IC50 / ng/mL": 2.72}
{"compound": "Nc1ccc(OC(F)(F)F)c(F)c1 [Compound 14, 3-fluoro-4-(trifluoromethoxy)aniline]", "subject of test": "Nb-EC03", "limit sign": ">", "EC5026 immunoassay IC50 / ng/mL": 150000}
{"compound": "C[C@H](C(=O)N1CCC(NC(=O)Nc2ccc(OC(F)(F)F)c(F)c2)CC1)[C@@H](C)O [M1]", "subject of test": "Nb-EC03", "limit sign": "=", "EC5026 immunoassay IC50 / ng/mL": 1.47}
{"compound": "C[C@H](O)[C@H](C)C(=O)N1CCC(NC(=O)Nc2ccc(OC(F)(F)F)c(F)c2)CC1 [M2]", "subject of test": "Nb-EC03", "limit sign": "=", "EC5026 immunoassay IC50 / ng/mL": 1.38}

---

subject of test: human sEH (Homo sapiens)
assay explanation: Activity on the target sEH enzyme
Format: biochemical
quantity name: IC50

{"compound": "Nc1ccc(OC(F)(F)F)c(F)c1", "subject of test": "human sEH (Homo sapiens)", "quantity name": "IC50", "value reported": "> 50 µM"}
{"compound": "Nc1ccc(OC(F)(F)F)cc1", "subject of test": "human sEH (Homo sapiens)", "quantity name": "IC50", "value reported": "> 50 µM"}
